B1: PBXIP1 (parent)
chain: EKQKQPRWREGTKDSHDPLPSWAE

Variants of: B1
Experiment: protein stability index of a GFP-peptide fusion (GPS, HEK-293T) (PSI 1-6); higher = more stable;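 also: lentivirally expressed fusions sorted by FACS into six bins by GFP to DsRed ratio, PSI derived from sequencing read proportions per bin multiplied by bin number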
Details: c terminus: a fixed tail appended
Given measured protein stability index, output 1 (yes) if it is greater than or equal to 2 and 0 (no) if not.

>  <MUTATION NAME>
W22S

>  <LABEL>
1 (yes)

$$$$

Say whether `K4A` shows protein stability index of 2 or more. 0 (no)
